pKd: −log10 of the molar value.
Lab note: pKd readings collected with PDGFRB (Homo sapiens) for the following molecules.
Sequence (P09619 33-1106): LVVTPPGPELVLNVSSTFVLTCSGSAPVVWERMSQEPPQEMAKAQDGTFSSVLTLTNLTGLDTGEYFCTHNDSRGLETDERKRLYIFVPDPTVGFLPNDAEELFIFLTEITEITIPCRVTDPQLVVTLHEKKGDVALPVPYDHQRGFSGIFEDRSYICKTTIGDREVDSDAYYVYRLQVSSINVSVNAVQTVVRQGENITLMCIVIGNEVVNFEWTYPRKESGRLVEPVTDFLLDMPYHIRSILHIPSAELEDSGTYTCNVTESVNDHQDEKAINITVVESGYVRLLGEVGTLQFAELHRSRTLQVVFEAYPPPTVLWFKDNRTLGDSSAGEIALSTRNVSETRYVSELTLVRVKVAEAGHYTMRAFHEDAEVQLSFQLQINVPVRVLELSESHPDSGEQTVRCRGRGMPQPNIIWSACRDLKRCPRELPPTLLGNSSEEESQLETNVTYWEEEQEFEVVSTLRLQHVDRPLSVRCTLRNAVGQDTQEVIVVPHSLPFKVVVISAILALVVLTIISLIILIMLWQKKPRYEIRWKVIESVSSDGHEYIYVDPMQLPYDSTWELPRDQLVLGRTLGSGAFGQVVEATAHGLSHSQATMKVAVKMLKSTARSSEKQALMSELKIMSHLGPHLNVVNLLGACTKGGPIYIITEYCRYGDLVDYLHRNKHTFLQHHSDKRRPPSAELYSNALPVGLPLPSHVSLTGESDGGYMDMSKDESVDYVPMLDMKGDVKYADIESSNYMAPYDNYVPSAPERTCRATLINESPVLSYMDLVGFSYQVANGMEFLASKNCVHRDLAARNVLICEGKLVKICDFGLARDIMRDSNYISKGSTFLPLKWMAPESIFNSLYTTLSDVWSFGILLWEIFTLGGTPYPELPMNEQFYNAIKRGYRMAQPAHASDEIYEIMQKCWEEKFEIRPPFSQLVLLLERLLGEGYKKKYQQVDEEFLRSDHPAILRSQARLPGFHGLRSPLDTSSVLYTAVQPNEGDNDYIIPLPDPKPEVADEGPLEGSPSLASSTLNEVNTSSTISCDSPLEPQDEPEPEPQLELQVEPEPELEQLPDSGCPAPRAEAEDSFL
TEST READOUT: pKd

I. CC(C)Nc1ccnc(Nc2cccc(-c3cccnc3)c2)n1
II. c1cncc(-c2cccc(Nc3nccc(NC4CCCCC4)n3)c2)c1
Request: Of the two listed items, which has the higher pKd? First: I Second: II Identify your pick by its label.
Response: I

* * *

assay: In vivo pharmacokinetic study; design: species or system mouse; conditions: female, C57BL/6, mouse, plasma, ip, 10 mg/kg
TEST READOUT: Tmax (min)
Give the quantity in min, number only.

Request: Query: Tmax; subject: CC(C)Nc1ccnc(Nc2cccc(-c3cccnc3)c2)n1 [Compound 5e]
Response: 15

* * *

Target: FLT3 (D835V) (Homo sapiens, UniProt P36888, D835V)
Sequence (P36888 27-993 D835V): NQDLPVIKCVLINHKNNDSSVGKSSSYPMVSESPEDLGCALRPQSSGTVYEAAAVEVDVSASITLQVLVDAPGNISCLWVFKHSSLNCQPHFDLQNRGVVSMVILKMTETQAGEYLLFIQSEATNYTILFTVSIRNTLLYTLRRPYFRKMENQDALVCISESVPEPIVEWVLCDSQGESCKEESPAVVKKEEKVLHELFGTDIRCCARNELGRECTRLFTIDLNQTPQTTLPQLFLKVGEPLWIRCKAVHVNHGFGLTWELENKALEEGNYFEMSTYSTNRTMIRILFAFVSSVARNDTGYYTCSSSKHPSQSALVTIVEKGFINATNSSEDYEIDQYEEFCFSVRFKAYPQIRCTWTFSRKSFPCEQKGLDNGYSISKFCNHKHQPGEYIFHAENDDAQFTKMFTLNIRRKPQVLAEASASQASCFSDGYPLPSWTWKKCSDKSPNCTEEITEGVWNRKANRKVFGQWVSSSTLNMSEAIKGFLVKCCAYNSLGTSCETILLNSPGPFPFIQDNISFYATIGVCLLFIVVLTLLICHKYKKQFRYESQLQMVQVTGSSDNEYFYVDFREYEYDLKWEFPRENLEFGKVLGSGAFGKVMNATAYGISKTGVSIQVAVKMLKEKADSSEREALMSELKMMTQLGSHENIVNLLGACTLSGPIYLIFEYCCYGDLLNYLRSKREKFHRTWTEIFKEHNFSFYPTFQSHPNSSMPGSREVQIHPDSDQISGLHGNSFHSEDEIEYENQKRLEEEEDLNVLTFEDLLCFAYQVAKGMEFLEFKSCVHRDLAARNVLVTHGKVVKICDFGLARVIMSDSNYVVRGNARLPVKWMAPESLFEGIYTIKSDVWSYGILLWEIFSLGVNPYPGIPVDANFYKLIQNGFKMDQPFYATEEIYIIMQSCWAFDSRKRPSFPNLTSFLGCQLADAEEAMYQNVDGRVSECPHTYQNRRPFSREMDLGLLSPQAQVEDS
Experiment: Kd determination
Type: binding
TEST READOUT: Kd (nM)

P. c1cncc(-c2cccc(Nc3nccc(NC4CCCCC4)n3)c2)c1 [Compound 1]
Q. CC(C)Nc1ccnc(Nc2cccc(-c3cccnc3)c2)n1 [Compound 5e]
Request: Of P versus Q , which is the one with smaller reported Kd? Identify your pick by its label.
Response: Q

* * *

Measured EC50 by item
test system: MV4-11 cells; assay: MV4-11 cell proliferation; format: cell-based; settings: Homo sapiens, MV4-11, 72 h, read-out: MV4-11 EC50

1. CN(c1cccc(-c2cccnc2)c1)c1nccc(NC2CCCCC2)n1 = > 4 µM

Request: Query: EC50; subject: c1cncc(-c2cccc(Oc3nccc(OC4CCCCC4)n3)c2)c1
Response: > 13 µM

Request: Query: EC50; subject: CN(c1ccnc(Nc2cccc(-c3cccnc3)c2)n1)C1CCCCC1
Response: > 8 µM

Request: Query: EC50; subject: c1cncc(-c2cccc(Nc3cc(NC4CCCCC4)ccn3)c2)c1
Response: > 16 µM

Request: Query: EC50; subject: CN(c1cccc(-c2cccnc2)c1)c1nccc(N(C)C2CCCCC2)n1
Response: 0.039 µM

Request: Query: EC50; subject: c1cncc(-c2cccc(Nc3ccnc(NC4CCCCC4)c3)c2)c1
Response: > 8 µM

* * *

target: FLT3 (Homo sapiens)
pKd: −log10 of the molar value.
TEST READOUT: pKd

a. c1cncc(-c2cccc(Nc3nccc(NC4CCCCC4)n3)c2)c1 [Compound 1]
b. CC(C)Nc1ccnc(Nc2cccc(-c3cccnc3)c2)n1 [Compound 5e]
Request: Of a versus b , which is the one with smaller reported pKd? Identify your pick by its label.
Response: a

* * *

biological target: FLT3 (D835Y) (Homo sapiens, UniProt P36888, D835Y); experiment: Kd determination
TEST READOUT: Kd (nM)

P. CC(C)Nc1ccnc(Nc2cccc(-c3cccnc3)c2)n1
Q. c1cncc(-c2cccc(Nc3nccc(NC4CCCCC4)n3)c2)c1
Request: Of the two listed items, which has the higher Kd? First: P Second: Q Identify your pick by its label.
Response: Q

* * *

test: In vivo pharmacokinetic study; set-up: species or system mouse; settings: mice, i.p., 3 mg/kg
TEST READOUT: Cmax (nM)
Give the quantity in nM, number only.

Request: Query: Cmax; subject: CC(C)Nc1ccnc(Nc2cccc(-c3cccnc3)c2)n1
Response: 376

* * *

target: FLT3 (D835H) (Homo sapiens, UniProt P36888, D835H); experiment: Kd determination; type: binding
pKd: −log10 of the molar value.
TEST READOUT: pKd

I. c1cncc(-c2cccc(Nc3nccc(NC4CCCCC4)n3)c2)c1
II. CC(C)Nc1ccnc(Nc2cccc(-c3cccnc3)c2)n1
Request: Of I versus II , which is the one with smaller reported pKd? Identify your pick by its label.
Response: I

* * *

experiment: Liver microsomal stability; conditions: both, human, liver microsomes, pH 7.4
TEST READOUT: half-life at 4 µM (min)

a. CC(C)Nc1ccnc(Nc2cccc(-c3cccnc3)c2)n1
b. CC(C)Nc1ccnc(Nc2cccc(-c3cnccn3)c2)n1
c. c1cncc(-c2cccc(Nc3nccc(NC4CCCCC4)n3)c2)c1
Request: Arrange by half-life at 4 µM, high to low. Answer by listing the labels in the requested order.
Response: a, b, c
(a: 126 min, b: 87.6 min, c: 48 min)

* * *

test: Liver microsomal stability; conditions: female, CD-1, mouse, liver microsomes, pH 7.4
TEST READOUT: half-life

Request: Query: half-life; subject: CC(C)Nc1ccnc(Nc2cccc(-c3cccnc3)c2)n1
Response: 12 to 60 min

* * *

experiment: Liver microsomal stability; conditions: dog, liver microsomes, pH 7.4
TEST READOUT: half-life at 4 µM (min)

1) CC(C)Nc1ccnc(Nc2cccc(-c3cnccn3)c2)n1 = 54

P. c1cncc(-c2cccc(Nc3nccc(NC4CCCCC4)n3)c2)c1
Q. CC(C)Nc1ccnc(Nc2cccc(-c3cccnc3)c2)n1
Request: Of the two listed items, which has the higher half-life at 4 µM? First: P Second: Q Identify your pick by its label.
Response: Q
(Q: 72 min, P: 42 min)

* * *

experiment: In vivo pharmacokinetic study; parameters: species or system mouse; conditions: female, C57BL/6, mouse, plasma, ip, 3 mg/kg, Cmax, mice
TEST READOUT: Cmax (nM)
Give the quantity in nM, number only.

Request: Query: Cmax; subject: CC(C)Nc1ccnc(Nc2cccc(-c3cccnc3)c2)n1
Response: 327

* * *

target: JAK1 (JH2 domain-pseudokinase) (Homo sapiens); assay: Kd determination
Sequence (P23458 583-855 limits assumed): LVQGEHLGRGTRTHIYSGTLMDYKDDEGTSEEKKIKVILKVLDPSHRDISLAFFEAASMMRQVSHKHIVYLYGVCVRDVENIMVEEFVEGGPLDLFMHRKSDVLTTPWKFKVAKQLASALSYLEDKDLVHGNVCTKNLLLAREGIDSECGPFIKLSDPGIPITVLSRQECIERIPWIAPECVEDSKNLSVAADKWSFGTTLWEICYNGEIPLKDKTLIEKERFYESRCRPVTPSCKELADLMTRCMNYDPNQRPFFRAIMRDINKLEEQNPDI
TEST READOUT: Kd (nM)
Give the quantity in nM, number only.

Request: Query: Kd; subject: CC(C)Nc1ccnc(Nc2cccc(-c3cccnc3)c2)n1
Response: 28

* * *

Target: CSF1R-autoinhibited (Homo sapiens, UniProt P07333)
Sequence (P07333 539-972 limits assumed): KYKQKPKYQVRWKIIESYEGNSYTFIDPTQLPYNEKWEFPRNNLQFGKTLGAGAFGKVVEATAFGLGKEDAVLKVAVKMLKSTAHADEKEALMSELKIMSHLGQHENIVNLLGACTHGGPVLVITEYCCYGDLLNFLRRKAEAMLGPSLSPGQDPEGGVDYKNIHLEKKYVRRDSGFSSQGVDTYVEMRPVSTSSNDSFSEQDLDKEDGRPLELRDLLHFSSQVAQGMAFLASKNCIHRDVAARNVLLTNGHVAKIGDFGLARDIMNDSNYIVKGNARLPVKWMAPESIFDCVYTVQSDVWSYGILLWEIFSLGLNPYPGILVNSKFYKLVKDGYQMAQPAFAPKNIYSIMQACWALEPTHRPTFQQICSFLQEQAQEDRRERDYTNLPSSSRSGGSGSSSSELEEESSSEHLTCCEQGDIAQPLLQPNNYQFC
TEST READOUT: pKd
Please express pKd as -log10 of the molar concentration.

Request: Query: pKd; subject: c1cncc(-c2cccc(Nc3nccc(NC4CCCCC4)n3)c2)c1 [Compound 1]
Response: 5.82

* * *

target: PIK4CB (Homo sapiens, UniProt Q9UBF8)
Sequence (Q9UBF8 whole entry): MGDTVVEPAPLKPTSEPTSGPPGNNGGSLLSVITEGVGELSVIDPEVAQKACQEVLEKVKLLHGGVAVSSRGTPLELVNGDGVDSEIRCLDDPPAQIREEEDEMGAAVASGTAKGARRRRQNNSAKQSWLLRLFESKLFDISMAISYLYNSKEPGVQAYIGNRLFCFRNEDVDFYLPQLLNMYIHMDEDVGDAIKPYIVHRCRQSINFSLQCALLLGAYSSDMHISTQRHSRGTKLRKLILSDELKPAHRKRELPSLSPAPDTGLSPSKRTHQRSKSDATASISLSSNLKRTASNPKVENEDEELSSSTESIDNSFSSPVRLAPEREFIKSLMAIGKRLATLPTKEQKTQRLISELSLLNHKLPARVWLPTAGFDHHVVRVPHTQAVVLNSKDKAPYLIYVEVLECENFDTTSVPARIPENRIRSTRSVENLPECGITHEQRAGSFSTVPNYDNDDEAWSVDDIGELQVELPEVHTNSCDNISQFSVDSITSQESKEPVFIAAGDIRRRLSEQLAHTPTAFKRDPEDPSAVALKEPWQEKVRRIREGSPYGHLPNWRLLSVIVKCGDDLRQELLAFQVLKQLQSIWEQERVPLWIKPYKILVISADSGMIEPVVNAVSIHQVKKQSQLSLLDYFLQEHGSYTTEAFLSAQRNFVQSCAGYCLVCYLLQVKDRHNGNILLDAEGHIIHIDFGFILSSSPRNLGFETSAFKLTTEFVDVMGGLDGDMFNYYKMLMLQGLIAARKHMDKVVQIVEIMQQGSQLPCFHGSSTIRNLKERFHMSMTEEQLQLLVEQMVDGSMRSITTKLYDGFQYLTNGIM
TEST READOUT: Kd (nM)

1) c1cncc(-c2cccc(Nc3nccc(NC4CCCCC4)n3)c2)c1 = 370
2) CC(C)Nc1ccnc(Nc2cccc(-c3cccnc3)c2)n1 = 330

Measured values drawn from paper PMC5452050 for this set.
